Recorded values, source PubChem BioAssay (Tox21).

// values below are reported max response
assay: qHTS RealTime-Glo MT Cell Viability Assay in HEK293 cells - 40 hour (AID 1224874); also: % is scaled to controls: 0 for no effect and ±100 for the full control effect; nearly all actives have a fitted effect of over 50% in size
run conditions: RealTime-Glo luminescence; stronger effect = lower value
Records with an inconclusive call do not appear.
Note: unit % is implicit; provide only the numeric part.

O=[N+]([O-])c1cccc2cccc([N+](=O)[O-])c12	-12.3

**Query** Dear colleague, please send me the reported max response for COCCC#N when you can.
**Result** 7.47

**Query** Identify measured max response associated with C[N+]1(C)[C@@H]2CC[C@H]1CC(OC(=O)C(CO)c1ccccc1)C2 (stereo partly drawn)
**Result** 8.28

**Query** Specify measured max response for CCn1cc[n+](C)c1 (tested in a mixture with another compound) .
**Result** -0.353

**Query** Dear colleague, please send me the reported max response for CCN(CC)CCN1C(=O)CN=C(c2ccccc2F)c2cc(Cl)ccc21 when you can.
**Result** -8.22

**Query** Please supply the value of reported max response for the item COc1cnc(OC)n2nc(NS(=O)(=O)c3c(OCC(F)F)cccc3C(F)(F)F)nc12
**Result** 16.5

**Query** Given the compound COC(=O)c1ccccc1S(=O)(=O)NC(=O)Nc1nc(C)nc(OC)n1 , write its reported max response.
**Result** 0.753

**Query** Complete the entry with the larger response for CCCCN(CCCC)C(=S)S
**Result** -4.16

**Query** Give the reported value of max response for this record: ClSC(Cl)(Cl)Cl
**Result** 0.633

**Query** Fill in max response for record Cc1c([N+](=O)[O-])cc2c(c1[N+](=O)[O-])C(C)(C)CC2(C)C
**Result** -1.57

----------
assay: qHTS assay to test for compound auto fluorescence at 460 nm (blue) in HEK293 cell free culture (AID 720681); also: % is scaled to controls: 0 for no effect and ±100 for the full control effect
run conditions: cell-free medium, autofluorescence 405/460 nm (blue); series mostly up to 91.3 µM
Activity calls are given as the source filed them. Calls come from the whole dose curve; as a rule, active = well fitted curve in the direction sought with a large enough effect in the repeat runs; inconclusive = weak or mixed curves; inactive = flat fitted curve, though single readings scatter.
value type: fluorescence, % of fluorescent control

Take a look at these entries with their results.
BrCCCBr	inactive
N#Cc1c[nH]cc1-c1cccc2c1OC(F)(F)O2	inactive
COP(=S)(OC)Oc1nc(Cl)c(Cl)cc1Cl	inactive
Cc1ccc(C)c2ccccc12	inactive
CCCCCCC[CH2][Sn]([Cl])([Cl])[CH2]CCCCCCC	inactive

**Query** Recall and state the measured fluorescence, % of fluorescent control for N#CCCl .
**Result** inactive

**Query** Answer with reported fluorescence, % of fluorescent control of ClCBr
**Result** inactive

**Query** Output fluorescence, % of fluorescent control of CC(C)[C@@H](Nc1ccc(C(F)(F)F)cc1Cl)C(=O)OC(C#N)c1cccc(Oc2ccccc2)c1 (stereo not given in full)
**Result** inactive

**Query** For the molecule CC(C)N(C(=O)SC/C(Cl)=C/Cl)C(C)C , report fluorescence, % of fluorescent control.
**Result** inactive

**Query** Kindly indicate its recorded fluorescence, % of fluorescent control. Item: CCCC[N+]1(C)CCCC1 (tested in a mixture with another compound)
**Result** inactive

----------
target: Cytochrome P450 2D6 (Homo sapiens)
assay: Cytochrome P450 Family 2 Subfamily D Member 6 (CYP2D6) small molecule antagonists: luciferase reporter qHTS assay (AID 1671196); also: nearly all actives have a fitted effect of over 50% in size
run conditions: P450-Glo CYP2D6 enzyme assay, luciferin luminescence, 1 h; series mostly up to 115 µM
Records with an inconclusive call do not appear. The source made the active and inactive calls. The call rests on the fitted dose curve; in most records, active means well fitted inhibition curve with a large enough effect in the repeat runs; inconclusive means weak or mixed curves; inactive means no such curve, though single readings can be large or run the other way.
// one of active, inactive, no free text

BrCC(Br)(Br)Br	inactive
O=[N+]([O-])c1cccc2cccc([N+](=O)[O-])c12	inactive

**Query** Which outcome did this test record for the molecule BrCCCBr ?
**Result** inactive

**Query** // return assay outcome for CC(Cc1ccc2c(c1)OCO2)NO (configuration not stated)
**Result** active
